Experiment: protein stability index of a GFP-peptide fusion (GPS, HEK-293T) (PSI 1-6); higher = more stable;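 further: 24-mer peptide tiles fused after GFP, lentivirally expressed, FACS-sorted into six equal bins by GFP/DsRed ratio, decoded by Illumina sequencing, PSI is the read-weighted mean bin number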
Settings: treatment: MLN4924 1 uM, 8 h; c terminus: a fixed tail appended
Kind request: treat 3 as inclusive, so protein stability index at 3 or higher is label 1, anything lower is label 0.

entry sequence: TLSKPSPMPVSQECFETLRGDERI [CHGA]
assigned label: label 1

entry sequence: AKVKPFDPKITCKQECLITTFQDV [TPH1]
assigned label: label 0

entry sequence: RQKDLKFLSEEEYWKLQIFFTNVI [CCNC]
assigned label: label 0

entry sequence: EVDEEGFTVRPDVTQNSTAEPSRF [FCHO1]
assigned label: label 1

entry sequence: EIVNYEPLGLEADMWSIGVITYIL [DAPK3]
assigned label: label 0

entry sequence: ADRCSPKEDQAWDGASQDCPPLPA [FBXO34]
assigned label: label 1

entry sequence: AELQCEVAALREEQKVLSRLVESL [RASAL3]
assigned label: label 1

entry sequence: PYPVLFHNIFLLGGSSTSERCLLN [NLN]
assigned label: label 0

entry sequence: HAGTVYGGVMYISGGITHDTFQKE [KLHL13]
assigned label: label 0

entry sequence: FTLASSSDTRVGAPATGSGTPGPF [CHIT1]
assigned label: label 1

entry sequence: VWERPARSALWCLGLNAAFWFFAL [RETREG3]
assigned label: label 0

entry sequence: GLALCPEVQDLLEGCELPDLPSSL [SMG5]
assigned label: label 1

entry sequence: QAKILQCYRENTHQTLKCSALATQ [CHCHD3]
assigned label: label 1

entry sequence: QALEKIFLQKVAQMPQEEVELLPP [BRD3]
assigned label: label 0

entry sequence: YLPQCSYFKCVQKDIQPYMRRMVA [CCND2]
assigned label: label 0

entry sequence: YSDKNAKLTKESYPVVVAESMYGD [TENT5D]
assigned label: label 1

entry sequence: ALGAPSKSPSSPQAAFTQQGMEGI [TBX5]
assigned label: label 1

entry sequence: FLLLIVFYTAITKKIFKSHLKSSR [P2RY14]
assigned label: label 0

entry sequence: ASSASAFLTAPLLEFLLALYFLFA [CMTM3]
assigned label: label 0

entry sequence: FNKGIYDIHVGLRGVPLLEWETEV [CLCN6]
assigned label: label 0

entry sequence: SPSSDLDTDAEGDDFELLDQSELS [RETREG3]
assigned label: label 1
